Just for reference, ChEMBL document CHEMBL3988442 is where these values come from.

Consider the following compounds; for each one, report its Percent Effect.
- Tested on: Wolbachia pipientis
- experiment-notes: Anti-Wolbachia Cell-Based Screen
- Type: functional
- Set-up: scale not given: in the data most compounds retested in dose-response had high values
- test-conditions: 5 µM
Screen size: about 48,000 compounds; about 13,000 (27%) showed an effect of 50% or more. This is one part of the list.

// solved cases for Percent Effect follow
{"columns": ["compound", "system-tested", "Percent Effect"],
 "data": [
  ["CCOc1ccccc1CNC(=O)N1CCC(n2cncn2)CC1", "Wolbachia pipientis", "121.4%"],
  ["OC1(CN2CCC(Cc3ncccn3)CC2)CCCCC1", "Wolbachia pipientis", "116.2%"],
  ["Cc1ccc(-c2ccnc(N(C)CC3CCCO3)n2)c(C)n1 (stereo not drawn)", "Wolbachia pipientis", "111.2%"]
]}

Here are 4 compounds. What values of Percent Effect were reported for them?
1. Cc1cc(C)c2nc(CN3CCC(CN)C3)cc(O)c2c1 (stereo not drawn)
2. CCCNc1ccc(C(=O)NCCc2cccc(OC)c2)cn1
3. O=C(NCCn1ccnc1)c1cncc(Br)c1
4. CCCNc1ccc(C(=O)NCCc2cccc(Cl)c2)cn1

Given back:
-17.01%
121.7%
15.29%
116.4%

Here are 8 compounds. What values of Percent Effect were reported for them?
1. CCCc1noc(C(C)N2CC(n3cccn3)C2)n1 (stereo not drawn)
2. COc1ncnc2c1CCN(C(=O)NCc1cccnc1)CC2.O=C(O)C(F)(F)F
3. CCCc1nnc(N(C)CC2CCCN(CC)C2)o1 (stereo not drawn)
4. O=C(NCCn1ccnc1)c1cc(F)cc(Br)c1
5. CC(C)Nc1ncnc2c1CCN(C(=O)NCc1cccnc1)CC2.O=C(O)C(F)(F)F
6. COc1cc(C(=O)NCCc2ccc(Cl)cc2)on1
7. OC1(CN2CCC(Cc3ccccc3)CC2)CCC1
8. O=C(C1CC=CC1)N1CCC2(CCC(=O)N2Cc2cccc(F)c2)CC1

Given back:
1. 2.136%
2. 5.156%
3. -14.65%
4. 6.627%
5. -1.871%
6. -4.303%
7. -17.41%
8. -0.5854%

Here are 8 compounds. What values of Percent Effect were reported for them?
1. Cc1ccc(-c2ccnc(N(C)CC3CCCN3C)n2)c(C)n1 (stereo not drawn)
2. CN(CC1CCCCO1)c1nncc(-c2cccc(F)c2)n1 (stereo not drawn)
3. O=C(N[C@@H]1CCN(C(=O)C2CCOCC2)C[C@H]1O)c1ccccn1
4. O=C(NCc1cccnc1)N1CCc2ncnc(C3CC3)c2CC1.O=C(O)C(F)(F)F
5. CC(C)SCCNC(=O)c1cccc2ccnn12
6. CCN(C)c1ncnc2c1CCN(C(=O)NCc1cccnc1)CC2.O=C(O)C(F)(F)F
7. CCN1CCCC(CN(C)c2nccc(-c3ccc(C)nc3C)n2)C1 (stereo not drawn)
8. O=C(c1nnn(-c2ccccc2Cl)c1-c1ccccn1)N1CCSCC1

Given back:
1. 123%
2. -2.947%
3. 2.955%
4. -6.522%
5. 5.28%
6. 18.48%
7. 89.59%
8. 5.989%

Here are 6 compounds. What values of Percent Effect were reported for them?
1. O=C(NC1CC1)[C@H]1C[C@H]2OCC[C@H]2N(Cc2ccc(F)cc2)C1.O=C(O)C(F)(F)F
2. CCNc1ncc(C(=O)NCCc2ccc(C)c(C)c2)cn1
3. O=C(NCCn1ccnc1)c1cccc(Br)c1
4. Cn1nc(Cn2cccn2)c2c1CN(Cc1ccsc1)C2.O=C(O)C(F)(F)F
5. Cc1cc(C(C)NC(=O)N2CCC(n3cncn3)CC2)c(C)s1 (stereo not drawn)
6. O=C(NCCn1ccnc1)c1cccc(F)c1

Given back:
1: -3.794%; 2: -6.077%; 3: 8.46%; 4: -9.596%; 5: 2.137%; 6: 6.195%

Here are 5 compounds. What values of Percent Effect were reported for them?
1. O=C1OCCC1N1CCN(c2ccc(O)cc2)CC1 (stereo not drawn)
2. CCOc1ncccc1CNC(=O)N1CCCC1c1ccncc1 (stereo not drawn)
3. O=C(NCc1cccnc1)N1CCc2ncnc(NC3CC3)c2CC1.O=C(O)C(F)(F)F
4. CCn1c(C)cc(C(=O)NCc2cccc(S(=O)(=O)NC)c2)c1C
5. COc1ccc(-c2cc(C(=O)NCCn3ccnc3)n(C)n2)cc1

Given back:
1. 4.942%
2. 0.3129%
3. 96.91%
4. -0.4884%
5. 156.8%

Here are 6 compounds. What values of Percent Effect were reported for them?
1. CN(CC1CCCN1C)c1nccc(C2CCCC2)n1 (stereo not drawn)
2. CNC(=O)c1cccc(CCNc2ccccn2)c1
3. O=C(CCc1ccc(F)cc1)NS(=O)(=O)c1ccc2c(c1)OCCO2
4. O=C(CCc1ccccn1)N1CCc2cc(Cl)cc(Cl)c2C1
5. CC(CN1CCOCC1)OC(=O)c1cccc2cn[nH]c12 (stereo not drawn)
6. O=C(NCc1cccc2cccnc12)N1CCC(n2cncn2)CC1

Given back:
1. 25.37%
2. -20.45%
3. -1.397%
4. -9.614%
5. -3.971%
6. -5.707%

Here are 4 compounds. What values of Percent Effect were reported for them?
1. CC(C)c1cc(C(=O)N[C@H]2CN(C3CCOCC3)C[C@@H]2C2CC2)no1
2. Cc1nn(C)cc1CN(C)c1nccc(-c2cn(C)nc2C)n1
3. COc1cc(C(=O)NCCc2cccc(C)c2)on1
4. COc1ccc(-c2ncc(-c3nccn3CCN(C)C)cn2)cc1

Given back:
-8.943%
-19.87%
-13.11%
-4.545%

Here are 3 compounds. What values of Percent Effect were reported for them?
1. Cc1n[nH]c(=O)c2c(NC(=O)CN3CCOCC3C)oc(C)c12 (stereo not drawn)
2. O=C(c1cnc(NCCC2CCCO2)c(Cl)c1)N1CCCCC1 (stereo not drawn)
3. COc1cc(F)ccc1N1CCN(Cc2nc(C)c(C)o2)CC1

Given back:
1. 12.8%
2. -6.452%
3. -8.318%

Asked: # lookup: Percent Effect of `CCOc1ncccc1CNC(=O)N1CCC(n2cncn2)CC1`
Given back: 108.5%
